# assayed_system: human factor XIa (Homo sapiens)
# Construct: human factor XIa, HFXIA, >95% purity; Molecular Innovations; purchased Molecular Innovations HFXIA
# Sequence (P03951 388-625 limits assumed): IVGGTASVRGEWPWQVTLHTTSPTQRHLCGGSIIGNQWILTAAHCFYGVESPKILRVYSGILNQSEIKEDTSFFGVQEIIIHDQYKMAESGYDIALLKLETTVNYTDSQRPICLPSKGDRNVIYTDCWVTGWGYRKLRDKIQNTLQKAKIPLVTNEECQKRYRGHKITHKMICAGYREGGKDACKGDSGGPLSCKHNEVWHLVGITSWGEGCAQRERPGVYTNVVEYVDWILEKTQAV
# Sequence (P03951 19-387 partner limits assumed): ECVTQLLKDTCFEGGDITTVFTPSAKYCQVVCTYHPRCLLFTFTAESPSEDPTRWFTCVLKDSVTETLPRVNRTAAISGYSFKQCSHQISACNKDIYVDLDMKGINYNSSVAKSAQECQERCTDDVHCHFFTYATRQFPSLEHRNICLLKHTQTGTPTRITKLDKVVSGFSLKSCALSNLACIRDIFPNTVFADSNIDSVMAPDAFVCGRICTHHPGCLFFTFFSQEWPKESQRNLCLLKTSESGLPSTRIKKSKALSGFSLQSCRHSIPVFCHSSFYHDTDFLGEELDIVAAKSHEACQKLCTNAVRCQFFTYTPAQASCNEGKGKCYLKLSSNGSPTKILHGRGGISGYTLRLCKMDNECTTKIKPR
# test_details: Serine protease inhibition assay, fluorogenic substrate, FXIa
# Type: biochemical
# experimental_conditions: endpoint RFU after 1 h, 25 °C
measurement_label: inhibition at 200 µM (%)
// return numeric value only (unit: %, not printed)

| molecule | unit_abbreviation | readout_value |
| --- | --- | --- |
| CC(=O)OC1CC2(C)C(CCC(C)C23Cc2c(O)cc4c(c2O3)CN(CCc2c[nH]c3ccccc23)C4=O)C(C)(C)C1OC(C)=O (stereo not shown) | % | 9 |
| CC(=O)OC1CC2(C)C(CCC(C)C23Cc2c(O)cc4c(c2O3)CN(C(Cc2c[nH]c3ccccc23)C(=O)O)C4=O)C(C)(C)C1OC(C)=O (stereo not shown) | % | 51 |
| CC(=O)OC1CC2(C)C(CCC(C)C23Cc2c(O)cc4c(c2O3)C(=O)N(C(Cc2c[nH]c3ccccc23)C(=O)O)C4)C(C)(C)C1OC(C)=O (stereo not shown) | % | 66 |

Let's switch to this molecule now.
I looked up CC(=O)OC1CC2(C)C(CCC(C)C23Cc2c(O)cc4c(c2O3)C(=O)N(CCc2c[nH]c3ccccc23)C4)C(C)(C)C1OC(C)=O (stereo not shown) and its inhibition at 200 µM for human factor XIa (Homo sapiens) was 17
